# credit: PubChem BioAssay AID1530

# Tested on: MEKK2 (MAP3K2) mutant PB1 domain binding to MEK5, human
# method: MEK5 binding signal on mutant MEKK2 PB1, primary screen, biochemical, multiplex bead flow cytometry, Alexa488-MEK5 (AID 1530)
# run_parameters: at 10 µM
About 1,000 (0.34%) of roughly 290,000 compounds were called active. No stated cut-off is given here; in the data, active means percent response above about 24% (passing the limit was not always enough); inactive means the rest. The entries come from a sample that favours actives as a whole.
Can you answer with just one of these options? active, inactive

For orientation, consider the following solved cases.
CN1CCN(/N=C/c2ccc(C#N)cc2)CC1; active
COc1cccc2sc(N(CCCN(C)C)C(=O)CCS(=O)(=O)c3ccccc3)nc12; inactive
CSc1ccc(/C=N/N2CCN(Cc3ccccc3Cl)CC2)cc1; inactive
CC(NC(=O)COC(=O)C1CCN(S(=O)(=O)c2ccccc2C(F)(F)F)CC1)c1ccccc1 (stereo not given); inactive
COc1cc(C2/C(=C(\O)c3ccc4c(c3)CC(C)O4)C(=O)C(=O)N2c2nnc(C)s2)cc(OC)c1OC (stereo not given); inactive

QUERY: # lookup: test call for `CCOc1ccc(C(=O)Nc2c3c(nn2-c2ccccc2)CS(=O)(=O)C3)cc1`
RESULT: inactive

QUERY: # lookup: test call for `COc1cccc2sc(N(CCCN(C)C)C(=O)C(c3ccccc3)c3ccccc3)nc12`
RESULT: inactive

QUERY: # lookup: test call for `CN1CCN(/N=C/c2ccc(-c3ccc([N+](=O)[O-])cc3)o2)CC1`
RESULT: inactive

QUERY: # lookup: test call for CC1COc2ccccc2N1C(=O)c1ccc(F)cc1 (stereo not given)
RESULT: inactive

QUERY: # lookup: test call for `Cc1[nH]n(C(N)=S)c(=O)c1N=Nc1ccc(Cl)cc1Cl`
RESULT: inactive
